Data provenance is patent US20090156542.

# target under test: biotinylated human D-MCP-1 (mirror-image D-protein) (Homo sapiens) (UniProt P13500)
# Sequence (P13500 24-99): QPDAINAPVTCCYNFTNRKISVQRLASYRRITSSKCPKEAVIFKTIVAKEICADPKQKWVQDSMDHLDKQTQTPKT
# experiment description: pulldown
# experimental parameters: direct or competitive pull-down
readout kind: pKd
Hey, just a heads up that pKd is the negative log base 10 of the concentration in molar.

GUGCUGCGUAGUGAGAAACUACCAACGACUGGCUAGAGCCGGCAGCAC [D-181-A2] ... 10.00
GUGCGCGUAGUUAAAAACUACCAGCGACUGGCUAGAGCCGGCGCAC [D-178-D5-030] ... 9.30

Next sequence, please.
So, GUGCUGCGUAGUUAAAAACUACCAGCGACUGGCUAGAGCCGGCAGCAC [D-178-D5] ? Its pKd was 9.30

====

# target under test: biotinylated human D-MCP-1 (mirror-image D-protein) (Homo sapiens)
# experiment description: pulldown
# experimental parameters: 37 C, selection buffer 1 mM Mg, 1 mM Ca
readout kind: Kd (nM)
Answer in nM, number only, no unit symbol.

So, GCACGUCCCUCACCGGUGCAAGUGAAGCCGUGGCUCUGCG [D-NOX-E36 (D-180-D1-036)] ? Its Kd was 0.146

====

Kd for assorted sequences
# target under test: biotinylated murine D-MCP-1 (mirror-image D-protein) (Mus musculus) (UniProt P10148)
# Sequence (P10148 24-99): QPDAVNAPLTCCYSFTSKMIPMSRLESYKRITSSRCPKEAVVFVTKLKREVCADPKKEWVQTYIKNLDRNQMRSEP
# experiment description: pulldown
# experimental parameters: subnanomolar

GAGAUGGCGACAUUGGUUGGGCAUGAGGCGAGGCCCUUUGAUGAAUCCGCGGCCAUUC [D-188-A3-001] ... < 1 nM

Next sequence, please.
So, GCUGGUUACCGAGGGGGCGUCGUUGGAGUUUGGUUGGUUGUCACCAGC [D-189-G7-001] ? Its Kd was < 1 nM

====

# target under test: biotinylated human D-MCP-1 (mirror-image D-protein) (Homo sapiens)
# experiment description: pulldown
# experimental parameters: room temperature, selection buffer 1 mM Mg, 1 mM Ca
readout kind: pKd
Hey, just a heads up that pKd is the negative log base 10 of the concentration in molar.

So, GCACGUCCCUCACCGGUGCAAGUGAAGCCGUGGCUCUGCG [D-NOX-E36 (D-180-D1-036)] ? Its pKd was 9.05

====

# target under test: biotinylated human D-MCP-1 (mirror-image D-protein) (Homo sapiens) (UniProt P13500)
# experiment description: pulldown
# experimental parameters: Type 1A
readout kind: pKd
Hey, just a heads up that pKd is the negative log base 10 of the concentration in molar.

Sample AGCGUGCCCGGUGUGGUAGGGGGGCGCGACCUACAUUUGCACGCU [D-176-E10trc] , system: biotinylated human D-MCP-1 (mirror-image D-protein) (Homo sapiens) (UniProt P13500). Its pKd is 8.30

====

# target under test: human MCP-1 (CCL2, natural L-form) (Homo sapiens)
# experiment description: SPR
# experimental parameters: L-RNA; CM4 chip, 37 C, 1 mM Mg, 1 mM Ca
readout kind: Kd (nM)
Answer in nM, number only, no unit symbol.

So, GGGCGUAGUGAGAAACUACCAACGACUGGCUAGAGCCGGCCC [181-A2-018] ? Its Kd was 0.37
